Each record here notes measured koff.
target.desc: Feline_OSMR_hlgG1_Fc (feline)
Sequence (chain, as listed by the source limits assumed, form in doubt): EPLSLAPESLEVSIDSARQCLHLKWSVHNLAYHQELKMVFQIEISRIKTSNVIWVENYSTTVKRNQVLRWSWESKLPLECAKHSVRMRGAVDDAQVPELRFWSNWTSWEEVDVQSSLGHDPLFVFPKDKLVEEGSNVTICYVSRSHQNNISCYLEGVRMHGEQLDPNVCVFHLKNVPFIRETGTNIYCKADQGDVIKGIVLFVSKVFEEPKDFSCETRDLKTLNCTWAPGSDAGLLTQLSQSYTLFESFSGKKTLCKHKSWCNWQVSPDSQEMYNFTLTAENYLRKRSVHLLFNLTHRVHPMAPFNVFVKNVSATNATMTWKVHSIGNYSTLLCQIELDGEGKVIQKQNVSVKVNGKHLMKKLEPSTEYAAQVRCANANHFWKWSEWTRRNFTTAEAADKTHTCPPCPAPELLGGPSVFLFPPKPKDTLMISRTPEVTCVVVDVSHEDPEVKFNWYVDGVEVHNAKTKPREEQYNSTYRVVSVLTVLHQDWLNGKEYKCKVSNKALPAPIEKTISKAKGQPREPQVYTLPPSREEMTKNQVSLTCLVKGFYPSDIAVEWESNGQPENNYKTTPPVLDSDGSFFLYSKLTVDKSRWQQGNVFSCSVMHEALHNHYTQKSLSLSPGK
experimental.protocol: SPR Biacore
The figure you give is taken to be in s⁻¹; do not add the unit.

Here is how some binders turned out for koff.
| binder | koff / s⁻¹ |
| --- | --- |
| Mu_10F07_VL (SEQ ID NO: 41)_W96A (antibody, V domains shown) VH: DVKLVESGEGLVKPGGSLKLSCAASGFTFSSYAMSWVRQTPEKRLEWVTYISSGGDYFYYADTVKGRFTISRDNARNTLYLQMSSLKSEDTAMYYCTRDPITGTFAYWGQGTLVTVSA VL: DIQMTQTTSSLSASLGDRVTISCRASQDITNYLNWYQQKPDGTVKLLIYYTSTLHSGVPSRFSGSGSGTDFSLTISNLEQEDIATYFCQQGHMLPATFGGGTKLEIKR | 0.00158 |
| Mu_09E09_VL (SEQ ID NO: 37)_Y32A (antibody, V domains shown) VH: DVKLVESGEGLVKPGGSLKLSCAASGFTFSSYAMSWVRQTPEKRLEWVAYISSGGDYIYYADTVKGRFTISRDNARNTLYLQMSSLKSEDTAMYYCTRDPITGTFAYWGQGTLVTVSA VL: DLQMTQTTSSLSASLGDRVTISCRASQDINNALNWYQQKPDGTVKLLIYYTSTLHSGVPSRFSGSGSGTDYSLTISNLEQEDIATYFCQQGNTLPWTFGGGTKLEIKR | 0.00158 |

# ---- query binder ----
input: Returns the measured koff for the input binder. Input: Mu_02D09_VL (SEQ ID NO: 33)_I29A (antibody, V domains shown) VH: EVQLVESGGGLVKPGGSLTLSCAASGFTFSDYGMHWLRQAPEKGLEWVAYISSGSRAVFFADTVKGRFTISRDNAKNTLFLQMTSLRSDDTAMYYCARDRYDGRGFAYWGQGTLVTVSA VL: DIVLTQSPATLSVTPGDSVSLSCRASQSASNNLHWYQQTSHESPRLLITYASQSISGIPSRFSGSGSGTDFTLSINSVETEDFGMYFCQQSNSWPLTFGAGTKLELKR
output: 0.00113
